Test system: SARS-COV-2
Assay overview: microbe, parasite or virus in culture
Type: cell-based
Measurement context: Severe acute respiratory syndrome coronavirus 2; Vero cells, 24 hours infection; read-out: SARS-COV-2 inhibition (IC50)
Would you kindly list IC50 for each of these molecules?
One number for each entry, in µM.

COc1cc2cc3c(c(-c4cnc(N[C@H]5CCc6c(cccc6OC)C5)nc4)c2cc1OC)C(=O)OC3 : 4.7
COc1cc2cc3c(c(N4CCN(c5ccc(Br)cn5)CC4)c2cc1OC)C(=O)OC3 : 21.8
COc1cc2cc3c(c(-c4cnc(Nc5ccc(C)c(C)c5)nc4)c2cc1OC)C(=O)OC3 : 15.1

Next molecule, IC50 to be filled in.
Bench note: what IC50 did COc1cc2cc3c(c(-c4ccc(N(C)[C@H]5CCc6c(cccc6OC)C5)nc4)c2cc1OC)C(=O)OC3 show?
1.28
